- Target Or Test System: C-X-C chemokine receptor type 4 (Homo sapiens)
- Sequence (P61073 whole entry): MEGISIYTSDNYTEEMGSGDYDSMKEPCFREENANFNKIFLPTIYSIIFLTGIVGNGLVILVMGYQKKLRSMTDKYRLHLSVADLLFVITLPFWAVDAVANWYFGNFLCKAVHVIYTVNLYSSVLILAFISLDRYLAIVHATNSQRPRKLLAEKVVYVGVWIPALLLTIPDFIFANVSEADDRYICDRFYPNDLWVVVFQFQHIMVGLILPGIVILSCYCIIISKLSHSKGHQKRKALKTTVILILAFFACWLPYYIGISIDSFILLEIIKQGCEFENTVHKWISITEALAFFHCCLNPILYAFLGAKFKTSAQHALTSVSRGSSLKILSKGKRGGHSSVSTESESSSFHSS
- Assay Notes: Inhibition of [125I]SDF-1 binding to C-X-C chemokine receptor type 4 expressed in CHO cells
- Format: cell-based
Assign IC50 to each entry below.
One number for each entry, in nM.

Observe how each entry below is paired with its result.
smiles_data=N=C(N)NCCC[C@@H]1NC(=O)[C@@H](Cc2ccc(O)cc2)NC(=O)CNC(=O)[C@H](Cc2ccc3ccccc3c2)/C=C\[C@H](CCCN=C(N)N)NC1=O numeric_readout=21000
smiles_data=N=C(N)NCCC[C@@H]1NC(=O)[C@@H](Cc2ccc(O)cc2)NC(=O)NC(=O)[C@H](Cc2ccc3ccccc3c2)NC(=O)[C@H](CCCN=C(N)N)NC1=O numeric_readout=4.5
smiles_data=N=C(N)NCCC[C@@H]1NC(=O)[C@@H](Cc2ccc(O)cc2)NC(=O)CNC[C@H](Cc2ccc3ccccc3c2)NC(=O)[C@H](CCCN=C(N)N)NC1=O numeric_readout=32

State the recorded IC50 for this entry: `NC(N)=NCCC[C@@H]1NC(=O)[C@H](CCCN=C(N)N)NC(=O)[C@@H](Cc2ccc(O)cc2)NC(=O)C/C=C/[C@H](Cc2ccc3ccccc3c2)NC1=O`
180
